test system: Pgp, MRP1 and BCRP co-immobilized; experiment: in vitro; settings: human, pH 7.4, Binding affinity (Kd), NMAC(LN-229)-IAM column, all transporters, ammonium acetate 10 mM pH 7.4, 0.4 mL/min
Assay endpoint: pKd
Numbers only, as −log10 of the molar value.

Inquiry: Annotate the compound COc1cc([C@@H]2c3cc4c(cc3[C@@H](O[C@@H]3O[C@@H]5CO[C@@H](C)O[C@H]5[C@H](O)[C@H]3O)[C@H]3COC(=O)[C@H]23)OCO4)cc(OC)c1O [etoposide] with its measured pKd.
Reply text: 5.43

###

target: MRP1 (Homo sapiens, UniProt P33527)
Sequence (P33527 whole entry): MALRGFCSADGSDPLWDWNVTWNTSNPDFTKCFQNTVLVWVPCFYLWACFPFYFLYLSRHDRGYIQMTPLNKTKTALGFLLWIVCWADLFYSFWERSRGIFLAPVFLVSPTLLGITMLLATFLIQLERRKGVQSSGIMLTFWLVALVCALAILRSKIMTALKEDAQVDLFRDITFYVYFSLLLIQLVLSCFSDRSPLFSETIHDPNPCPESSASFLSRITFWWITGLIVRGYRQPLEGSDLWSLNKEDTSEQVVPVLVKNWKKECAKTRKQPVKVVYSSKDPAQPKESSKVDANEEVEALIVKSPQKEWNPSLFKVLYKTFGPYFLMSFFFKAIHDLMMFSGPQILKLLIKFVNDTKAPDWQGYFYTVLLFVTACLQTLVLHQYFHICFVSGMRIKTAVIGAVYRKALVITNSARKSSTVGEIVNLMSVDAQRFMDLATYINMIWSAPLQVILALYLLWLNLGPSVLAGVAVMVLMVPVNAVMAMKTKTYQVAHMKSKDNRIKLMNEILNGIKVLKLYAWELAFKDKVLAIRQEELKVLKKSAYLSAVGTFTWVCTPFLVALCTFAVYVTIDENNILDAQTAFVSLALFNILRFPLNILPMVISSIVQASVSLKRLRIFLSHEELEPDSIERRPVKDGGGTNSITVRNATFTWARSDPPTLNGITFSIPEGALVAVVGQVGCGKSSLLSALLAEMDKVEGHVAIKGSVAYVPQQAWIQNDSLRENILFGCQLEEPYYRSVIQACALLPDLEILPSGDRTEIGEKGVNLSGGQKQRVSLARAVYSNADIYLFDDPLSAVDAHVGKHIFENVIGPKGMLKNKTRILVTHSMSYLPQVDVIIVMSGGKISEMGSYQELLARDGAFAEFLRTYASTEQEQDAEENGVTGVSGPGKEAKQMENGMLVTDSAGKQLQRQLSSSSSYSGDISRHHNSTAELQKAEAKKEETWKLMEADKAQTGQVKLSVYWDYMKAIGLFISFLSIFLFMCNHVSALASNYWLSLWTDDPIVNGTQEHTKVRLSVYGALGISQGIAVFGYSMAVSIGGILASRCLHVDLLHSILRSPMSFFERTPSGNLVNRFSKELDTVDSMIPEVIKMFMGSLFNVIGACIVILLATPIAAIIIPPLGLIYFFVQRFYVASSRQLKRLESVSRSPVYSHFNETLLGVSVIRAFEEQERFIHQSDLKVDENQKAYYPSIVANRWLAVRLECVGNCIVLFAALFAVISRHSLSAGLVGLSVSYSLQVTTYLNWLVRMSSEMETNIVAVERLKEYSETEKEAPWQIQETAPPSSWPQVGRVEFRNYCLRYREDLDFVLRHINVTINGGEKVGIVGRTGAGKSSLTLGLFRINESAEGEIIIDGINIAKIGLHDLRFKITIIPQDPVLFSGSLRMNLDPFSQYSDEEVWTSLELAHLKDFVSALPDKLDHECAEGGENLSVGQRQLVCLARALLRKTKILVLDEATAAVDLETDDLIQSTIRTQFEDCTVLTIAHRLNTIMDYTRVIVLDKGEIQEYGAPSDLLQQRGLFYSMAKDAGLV
Assay endpoint: pKd
Answers are plain numbers, as −log10 of the molar value.

Inquiry: Annotate the molecule COc1cc([C@@H]2c3cc4c(cc3[C@@H](O[C@@H]3O[C@@H]5CO[C@@H](C)O[C@H]5[C@H](O)[C@H]3O)[C@H]3COC(=O)[C@H]23)OCO4)cc(OC)c1O [etoposide] with its measured pKd.
Reply text: 5.36

###

molecular target: BCRP (Homo sapiens, UniProt Q9UNQ0); test: Selective Kd determination on NMAC
Sequence (Q9UNQ0 whole entry): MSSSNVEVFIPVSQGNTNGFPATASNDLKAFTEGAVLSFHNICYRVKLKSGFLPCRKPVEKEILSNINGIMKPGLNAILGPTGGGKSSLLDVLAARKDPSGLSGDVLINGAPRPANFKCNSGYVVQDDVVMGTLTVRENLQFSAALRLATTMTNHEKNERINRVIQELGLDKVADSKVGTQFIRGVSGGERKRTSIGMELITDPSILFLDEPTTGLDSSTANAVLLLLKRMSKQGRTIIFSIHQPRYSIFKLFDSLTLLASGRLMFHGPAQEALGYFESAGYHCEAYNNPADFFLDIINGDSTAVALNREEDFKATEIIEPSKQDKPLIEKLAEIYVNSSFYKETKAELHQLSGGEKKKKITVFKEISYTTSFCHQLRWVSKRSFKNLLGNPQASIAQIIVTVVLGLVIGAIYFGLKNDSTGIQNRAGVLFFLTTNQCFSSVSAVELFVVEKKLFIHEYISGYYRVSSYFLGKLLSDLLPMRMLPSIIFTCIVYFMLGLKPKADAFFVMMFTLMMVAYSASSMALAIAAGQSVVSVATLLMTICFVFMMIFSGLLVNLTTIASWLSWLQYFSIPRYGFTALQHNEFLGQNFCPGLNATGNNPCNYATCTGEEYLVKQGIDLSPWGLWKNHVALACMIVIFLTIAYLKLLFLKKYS
Assay endpoint: pKd
Answers are plain numbers, as −log10 of the molar value.

Inquiry: Annotate the molecule COc1cc([C@@H]2c3cc4c(cc3[C@@H](O[C@@H]3O[C@@H]5CO[C@@H](C)O[C@H]5[C@H](O)[C@H]3O)[C@H]3COC(=O)[C@H]23)OCO4)cc(OC)c1O [etoposide] with its measured pKd.
Reply text: 5.85

###

system: Pgp, MRP1 and BCRP transporters (LN-229 nuclear membranes, open tubular); test: Frontal affinity chromatography on NMAC; type: binding, human; details: read-out: Binding affinity (Kd); NMAC(LN-229)-OT column, ammonium acetate 10 mM pH 7.4, 0.05 mL/min
Assay endpoint: Kd (nM)
Answers are plain numbers, in nM.

Inquiry: Annotate the compound COc1ccc(-c2coc3cc(O)cc(O)c3c2=O)cc1 [biochanin A] with its measured Kd.
Reply text: 1750

###

test system: Pgp, MRP1 and BCRP transporters (LN-229 cellular membranes, open tubular); assay: Frontal affinity chromatography on CMAC; type: binding, human; settings: read-out: Binding affinity (Kd); CMAC(LN-229)-OT column, ammonium acetate 10 mM pH 7.4, 0.05 mL/min
Assay endpoint: pKd
Answers are plain numbers, as −log10 of the molar value.

Inquiry: Annotate the compound COc1ccc(-c2coc3cc(O)cc(O)c3c2=O)cc1 [biochanin A] with its measured pKd.
Reply text: 6.16

###

test system: Pgp, MRP1 and BCRP; experiment: Frontal affinity chromatography on CMAC; format: binding, human; conditions: human, pH 7.4
Assay endpoint: Kd
Please give the number followed by its unit.

Inquiry: Annotate the compound COc1cc([C@@H]2c3cc4c(cc3[C@@H](O[C@@H]3O[C@@H]5CO[C@@H](C)O[C@H]5[C@H](O)[C@H]3O)[C@H]3COC(=O)[C@H]23)OCO4)cc(OC)c1O [etoposide] with its measured Kd.
Reply text: 2250 nM
